Entries and their melting point

# MOLECULE, melting point
records = [
    ("C1CCC(NC2CCCCC2)CC1 [dicyclohexylamine]", "-2 °C"),
    ("CC(=O)NC(CCC(N)=O)C(=O)O (configuration not stated) [aceglutamide]", "197 °C"),
    ("CC(C)(C)c1ccc(C2CCC3(CC2)Cc2ccc(C(=O)Nc4ccccc4OCCCC(=O)O)cc2C3)cc1 (configuration not stated)", "147 °C"),
    ("CCCC(C)(COC(N)=O)COC(N)=O [Meprobamate]", "105 °C"),
    ("N[C@@H](Cc1cc(I)c(Oc2cc(I)c(O)c(I)c2)c(I)c1)C(=O)O [Levothyroxine]", "236 °C"),
    ("CCCc1ccccc1 [Propylbenzene]", "-99 °C"),
    ("O=[N+]([O-])c1cccc(-c2ccccc2)c1 [3-nitrobiphenyl]", "62 °C"),
    ("O=C(NC1CCN(CCc2c[nH]c3ccccc23)CC1)c1ccccc1 [indoramin]", "208 °C"),
    ("c1ccc2nccnc2c1 [quinoxaline]", "30 °C"),
    ("CCCCCl [1-Chlorobutane]", "-123 °C"),
    ("COc1ccc(Cl)cc1C(=O)NCCc1ccc(S(=O)(=O)NC(=O)NC2CCCCC2)cc1 [Glibenclamide]", "170 °C"),
    ("COC(=O)c1cc2ccccc2cn1 [methyl isoquinoline-3-carboxylate]", "86 °C"),
    ("Oc1c(F)ccc(F)c1F [2,3,6-trifluorophenol]", "34 °C"),
    ("Cc1c(C#N)c2ccccc2n1O [1-hydroxy-2-methyl-1H-indole-3-carbonitrile]", "159 °C"),
    ("CC1=CC(=O)OC1=O [citraconic anhydride]", "8 °C"),
    ("CC(C)Cc1ccc(C(C)C(=O)O)cc1 (configuration not stated) [Ibuprofen]", "76 °C"),
    ("CCCCC=O [valeraldehyde]", "-92 °C"),
    ("c1ccc(-c2ccc(-c3ccccc3)cc2)cc1 [p-terphenyl]", "213 °C"),
    ("NCC(=O)NCC(=O)O [Glycylglycine]", "258 °C"),
    ("O=[N+]([O-])c1ccccc1I [1-iodo-2-nitrobenzene]", "51 °C"),
    ("NNC(=O)c1ccncc1 [isonicotinic acid hydrazide]", "172 °C"),
    ("CC(=O)Nc1ccccc1 [acetanilide]", "114 °C"),
    ("Oc1ccccc1Br [2-bromophenol]", "5.6 °C"),
    ("OB(O)c1cccc2ncccc12 [quinoline-5-boronic acid]", "146 °C"),
    ("O=C=N/C1CCCCC1 [Isocyanatocyclohexane]", "-80 °C"),
    ("O=C(O)c1ccccc1/N=N/c1ccc(O)cc1 [2-(4-hydroxyphenyl-azo)benzoic acid]", "206 °C"),
    ("Nc1cc([N+](=O)[O-])ccc1O [2-amino-4-nitrophenol]", "143 °C"),
]

The measured values listed here are drawn from the Bradley open melting point set (2014).
